The reported numbers originate from paper PMC7724630.

system: A431 cancer cells; experiment: MTT-based cytotoxicity assay under different O2 levels; format: cell-based, Human; settings: A431, 72 h, 5% O2; read-out: IC50 hypoxia with 5% O2
pIC50: −log10 of the molar value.
Property label: pIC50

> print(dat)
                                   molecule  value.observed
1  CC(=O)[C-](C)C(C)=O.CC(=O)[C-](C)C(C)=O.CNCCNc1ccc2ncnc(Nc3cccc(Br)c3)c2c1.[Cl-].[Co+3] [Co(Meacac)2MeL^+]            4.26
2  CC(=O)[C-](C)C(C)=O.CC(=O)[C-](C)C(C)=O.NCCNc1ccc2ncnc(Nc3cccc(Br)c3)c2c1.[Cl-].[Co+3] [Co(Meacac)2L^+]            4.34
3  CC(=O)[CH-]C(C)=O.CC(=O)[CH-]C(C)=O.CNCCNc1ccc2ncnc(Nc3cccc(Br)c3)c2c1.[Cl-].[Co+3] [Co(acac)2MeL^+]            4.87

###

test system: A431 cancer cells; assay: MTT-based cytotoxicity assay under different O2 levels; type: cell-based, Human; settings: Homo sapiens, A-431; A431, 72 h, 21% O2; read-out: IC50 normoxia
pIC50: −log10 of the molar value.
Property label: pIC50

> print(dat)
                                   compound        measured.on  value.observed
1  CNCCNc1ccc2ncnc(Nc3cccc(Br)c3)c2c1.Cl.Cl  A431 cancer cells            5.16
2         NCCNc1ccc2ncnc(Nc3cccc(Br)c3)c2c1  A431 cancer cells            4.92
3  C#Cc1cccc(Nc2ncnc3cc(OCCOC)c(OCCOC)cc23)c1 [erlotinib, reference compound]  A431 cancer cells            4.88

###

system: A431 cancer cells; assay: MTT-based cytotoxicity assay under different O2 levels; format: cell-based, Human; details: Homo sapiens, A-431; A431, 72 h, 5% O2; read-out: IC50 hypoxia with 5% O2
IC50 values for the compounds below.
Property label: IC50 (µM)

> print(dat)
                                   compound  property.label  value.observed
1  CNCCNc1ccc2ncnc(Nc3cccc(Br)c3)c2c1.Cl.Cl [MeL]            IC50             8.7
2     NCCNc1ccc2ncnc(Nc3cccc(Br)c3)c2c1 [L]            IC50            12.8
